Below: a set of entries, each annotated with reported cytotoxicity at 10 µM.
- TEST PROTOCOL: Toxicity liver stage against HepG2, at 10uM
- Format: cell-based
- Design: test concentration 10 uM, cell line HepG2-A16-CD81EGFP
- ASSAY CONTEXT: human, HepG2-A16-CD81EGFP cells; read-out: INHIBITION
Give the quantity in %, number only.

Examples with answers:
Cc1[nH]ccc1C(=O)N1CCOCC12CCCC2	4.14
O=S(=O)(C1CC1)N1CCc2c(CN3CCOCC3)cncc2C1	-0.514
COc1ccc2nnc(CCCC(=O)NCCC3=CCCCC3)n2n1	2.73

Lookup: Reported cytotoxicity at 10 µM, compound Cc1cnn(C2CN(Cc3noc(-c4ccccc4)n3)C2)c1 : ____
Found: -1.52

Lookup: Reported cytotoxicity at 10 µM, compound CN(Cc1ccccc1-n1cccn1)c1nc(N)nc2c1CCNCC2 : ____
Found: -12.2

Lookup: Reported cytotoxicity at 10 µM, compound CCN1CC(COC(=O)c2cc(Br)ccc2F)CC1=O (configuration not stated) : ____
Found: 5.09

Lookup: Reported cytotoxicity at 10 µM, compound c1ccc2c(NC3CCc4ncnn4C3)ncnc2c1 (configuration not stated) : ____
Found: 7.21

Lookup: Reported cytotoxicity at 10 µM, compound CCN1CC2(CCC1=O)CCN(Cc1cc(F)ccc1Cl)CC2 : ____
Found: 6.58

Lookup: Reported cytotoxicity at 10 µM, compound Cc1cc(CN2CCN(C(=O)NC(C)c3cccnc3)CC2)on1 (configuration not stated) : ____
Found: -7.93

Lookup: Reported cytotoxicity at 10 µM, compound Cn1c(=O)c2c(n3ncnc13)NC(=O)CC2c1cccc(Br)c1 (configuration not stated) : ____
Found: 7.83

Lookup: Reported cytotoxicity at 10 µM, compound Cc1ccc(CNC(=O)c2cc(C)n(C)n2)o1 : ____
Found: 0.25

Lookup: Reported cytotoxicity at 10 µM, compound CS(=O)(=O)c1ccccc1NCc1ccc(Cn2ccnc2)cc1 : ____
Found: 1.67

====

Below: a set of entries, each annotated with reported cytotoxicity at 10 µM.
- TEST PROTOCOL: Toxicity liver stage against HepG2, at 10uM
- Assay type: cell-based
- Design: test concentration 10 uM, cell line HepG2-A16-CD81EGFP
- ASSAY CONTEXT: human, HepG2-A16-CD81EGFP cells; read-out: INHIBITION
Give the quantity in %, number only.

Examples with answers:
O=C(c1ccc(C2CCCN2)s1)N1CCN(C(=O)N2CCOCC2)CC1 (stereo not drawn)	0.106
COc1ccc2c(C)nc(N3CCN([C@H]4CCCC[C@@H]4O)CC3)nc2c1	7.24
Cc1cc(C2CCCN(C(=O)Cc3csc(C(C)C)n3)C2)n[nH]1 (stereo not drawn)	-7.27
Cc1cccc(-n2cc(CN3CCN(C)[C@@H]4CS(=O)(=O)C[C@@H]43)cn2)c1	2.25
CN(C)CCN(Cc1ccsc1)C(=O)C1=NNC(=O)CC1	6.62
Cn1cc(C#N)cc1C(=O)Nc1ccc(CN2CCOCC2)cn1	-6.68
O=C(NCCc1noc(-c2ccccn2)n1)NCC1CCCC1	0.321
c1ccc(CCN2CCc3c(ncn3C3CC3)C2)nc1	-1.43

Lookup: Reported cytotoxicity at 10 µM, compound COC1CCN(C(=O)Cc2csc(-c3ccc(F)cc3)n2)CC1 : ____
Found: -6.16

Lookup: Reported cytotoxicity at 10 µM, compound CCSc1ccccc1C(=O)N1CC2(COC(C)(C)OC2)C1 : ____
Found: -3.45

Lookup: Reported cytotoxicity at 10 µM, compound Cc1ncsc1C(=O)NCCOc1ncc(Cl)cc1Cl : ____
Found: 7.67

Lookup: Reported cytotoxicity at 10 µM, compound O=C(O)c1ccn(-c2ccccc2NS(=O)(=O)c2ccccc2)n1 : ____
Found: 23

Lookup: Reported cytotoxicity at 10 µM, compound CN(C)C(=O)N1CCN(C(=O)c2ccc(Cl)cc2)CC2(CNC(=O)C2)C1 (stereo not drawn) : ____
Found: 10.5

Lookup: Reported cytotoxicity at 10 µM, compound COc1ccccc1CC(=O)NC1CCCc2cn[nH]c21 (stereo not drawn) : ____
Found: 17.1
